All values here come from patent US20220363709A1.

# target entity: recombinant CD73 (Homo sapiens)
# Construct: purchased R&D Systems 5795-EN-010
# Sequence (P21589 27-547 limits assumed): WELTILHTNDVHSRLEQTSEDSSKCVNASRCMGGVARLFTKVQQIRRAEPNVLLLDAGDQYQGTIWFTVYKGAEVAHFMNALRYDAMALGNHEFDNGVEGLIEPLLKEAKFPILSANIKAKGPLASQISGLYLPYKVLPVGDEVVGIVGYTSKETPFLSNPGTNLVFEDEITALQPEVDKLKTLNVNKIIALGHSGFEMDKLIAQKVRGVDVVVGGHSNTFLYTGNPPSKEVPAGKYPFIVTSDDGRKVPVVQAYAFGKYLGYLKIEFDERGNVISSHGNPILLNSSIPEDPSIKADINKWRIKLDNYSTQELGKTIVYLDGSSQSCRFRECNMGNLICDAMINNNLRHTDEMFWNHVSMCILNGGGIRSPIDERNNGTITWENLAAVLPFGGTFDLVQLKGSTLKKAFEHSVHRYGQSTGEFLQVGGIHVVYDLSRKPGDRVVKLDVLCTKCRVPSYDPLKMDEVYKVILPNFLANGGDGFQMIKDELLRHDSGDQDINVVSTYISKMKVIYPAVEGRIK
# method description: Assay 1: Inhibition of the CD73 Enzyme In Vitro
# Assay type: biochemical
# protocol conditions: soluble recombinant CD73 0.5 nM, AMP 50 μM, 30 minutes at room temperature, Malachite Green, absorbance at 630 nm; read-out: Assay 1 CD73 IC50
readout label: IC50 (nM)

// query Recorded IC50 for CCCCOc1nc(Cl)nc2c1ncn2[C@@H]1O[C@H](COC(Cc2ccccc2)(C(=O)O)c2cscn2)[C@@H](O)[C@@H]1F (mixture of isomers) , please?
// result 3420

[a] Nc1nc(Cl)nc2c1ncn2[C@@H]1O[C@H](CO[C@@](Cc2ccc(-c3ccc(C(=O)O)cc3)cc2)(C(=O)O)c2cscn2)[C@@H](O)[C@@H]1F (single isomer, unassigned)
[b] COc1ncccc1-c1ccc(C[C@@](OC[C@H]2O[C@@H](n3cnc4c(N)nc(Cl)nc43)[C@@H](F)[C@@H]2O)(C(=O)O)c2cscn2)cc1 (single isomer, unassigned)
// query Hello, I am sorting some records. Could you say if a or b has the smaller IC50 value? When you have decided, please share the label of that item.
// result b
(b: 170 nM, a: 1530 nM)
